# relative viability listing for each entry below
Tested on: NCI-H1355
method_summary: relative viability (nuclei count vs DMSO), 5 days (fraction); higher = more cells survive
condition_details: first compound 0.04 µM

molecule: Clc1ccc(Nc2nnc(Cc3ccncc3)c3ccccc23)cc1 [Vatalanib] + Cc1cc(Nc2cc(N3CCN(C)CC3)nc(Sc3ccc(NC(=O)C4CC4)cc3)n2)n[nH]1 [Tozasertib] (partner 0.1 µM)
assayed_target: NCI-H1355
relative viability: 0.585
--
molecule: COc1cc(N2CCC(C(N)=O)CC2)ccc1Nc1nc(N)c(Cl)c(Nc2ccccc2S(=O)(=O)C(C)C)n1 [HG-5-88-01] + Cc1cc(Nc2cc(N3CCN(C)CC3)nc(Sc3ccc(NC(=O)C4CC4)cc3)n2)n[nH]1 [Tozasertib] (partner 0.1 µM)
assayed_target: NCI-H1355
relative viability: 0.601
--
molecule: Clc1ccc(Nc2nnc(Cc3ccncc3)c3ccccc23)cc1 [Vatalanib] + COc1cccc2cc(-c3nc([C@H]4CC[C@H](C(=O)O)CC4)n4ncnc(N)c34)[nH]c12 [OSI-027] (partner 0.5 µM)
assayed_target: NCI-H1355
relative viability: 0.427
--
molecule: Clc1ccc(Nc2nnc(Cc3ccncc3)c3ccccc23)cc1 [Vatalanib] + O=C(c1cc(Cc2n[nH]c(=O)c3ccccc23)ccc1F)N1CCN(C(=O)C2CC2)CC1 [Olaparib] (partner 8 µM)
assayed_target: NCI-H1355
relative viability: 0.732
--
molecule: Clc1ccc(Nc2nnc(Cc3ccncc3)c3ccccc23)cc1 [Vatalanib] + CCNC(=O)c1noc(-c2cc(C(C)C)c(O)cc2O)c1-c1ccc(CN2CCOCC2)cc1 [Luminespib] (partner 0.01 µM)
assayed_target: NCI-H1355
relative viability: 0.74
